Cited source: patent US20140056907A1

# tgt: T1, human ASIC1 (human, UniProt P78348 1-528)
# T1 construct: Ion channel subunit expressed on 3T3 (3T3/hASIC1) or HEK293 cells (HEK/hASIC1; HEK293 CL:1F10 transient); also called hASIC1; human ASIC1a
# T1 sequence: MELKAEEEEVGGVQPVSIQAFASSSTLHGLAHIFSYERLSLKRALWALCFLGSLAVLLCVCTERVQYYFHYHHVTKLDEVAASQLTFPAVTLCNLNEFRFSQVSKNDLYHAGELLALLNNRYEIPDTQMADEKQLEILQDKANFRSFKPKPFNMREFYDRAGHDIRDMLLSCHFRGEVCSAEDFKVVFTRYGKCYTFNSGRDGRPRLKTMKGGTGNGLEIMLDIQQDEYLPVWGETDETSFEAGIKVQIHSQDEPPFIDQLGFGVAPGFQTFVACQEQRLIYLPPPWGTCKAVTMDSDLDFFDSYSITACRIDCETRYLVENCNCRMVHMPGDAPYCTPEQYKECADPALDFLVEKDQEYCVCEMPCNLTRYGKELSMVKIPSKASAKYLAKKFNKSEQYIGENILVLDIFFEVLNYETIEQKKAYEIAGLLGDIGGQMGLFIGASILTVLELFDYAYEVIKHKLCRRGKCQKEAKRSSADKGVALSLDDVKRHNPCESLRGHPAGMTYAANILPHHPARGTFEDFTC
# assayExplanation: FACS titration, 3T3/hASIC1 cells
# Protocol: To perform the FACS binding experiments, adherent cells were collected using 1 mM EDTA in PBS, then washed, and re-suspended in cold PBS containing 5% FBS. […] After incubating for 20 minutes on ice, the cells were washed and resuspended in PBS containing 5% FBS, then sorted and analyzed on a flow cytometer (FACSCalibur, BD Biosciences, San Jose, Calif.) to determine relative binding by the candidate antibodies to the tested cell lines. […]
Exam item: assign True to entries whose EC50 is below 1 nM and False to entries at or above 1 nM. Note that a value of exactly 1 nM receives False.

Would you please look over these solved cases?
binder	assignedClass
H3M6726N (antibody, V domains shown, Chimeric: human variable, mouse constant domains; H3M prefix marks the Fc, isotype not spelled out) VH: EVQLLESGGVLVQPGGSLRLSCAASGFNFNNYDMSWVRQAPGKGLEWVSVISASGRNTYYADSVKGRFTISRDNSKISLYLQMNSLRPEDTAVYYCAKDHLVHYYYGMDVWGQGTTVTVSS VL: DIMMTQSPLSLSVTPGEPASISCRSSQSLLHSNGYNYLDWYLQKSGQSPHLLIYLGSNRASGVPDRFSGSGSGTDFTLKISRVEAEDGGVYYCMQALQTPRTFGQGTKVEIK	False
H3M6713N (antibody, V domains shown, Chimeric: human variable, mouse constant domains; H3M prefix marks the Fc, isotype not spelled out) VH: EELVLESGGGLVQPGGSLRLSCAASGFMFSTYAMSWVRQAPGKGLEWVSLISGRDGSTYYADSVKGRFTISRDISRNTLYLHLNSLRAEDTAVYYCAKDTAVVPGYGLDVWGQGTTVTVSS VL: DIQMTQSPATLSASVGDRVTITCRASQTISNWLAWYQQRPGKAPKLLIYKASSLETGVPSRFSGSGSGTEFTLTISSLQPDDFASYYCQQYNSYSWTFGQGTKVEIK	True
H3M7102N (antibody, V domains shown, Chimeric: human variable, mouse constant domains; H3M prefix marks the Fc, isotype not spelled out) VH: EVQLLASGGGLVQPGGSLRLSCAASGFTFSSFAMSWVRQAPGKGLEWVSGISGSGGSTYYADSVKGRFTISRDNSKNTLYLQMNSLRAEDTAAYYCAKEAYKWQPWGQGIRVTVSS VL: DIQMTQSPSTLSASVGDRVSITCRASQSISSWLAWYQQKPGKAPKLLIYKASNLDSGVPSRFSGSGSGTDFTLTISSLQPDDFATYYCQQYNSYSYTFGQGTKLEIK	False
H3M7118N (antibody, V domains shown, Chimeric: human variable, mouse constant domains; H3M prefix marks the Fc, isotype not spelled out) VH: EVQLLESGGGLVQPGGSLRLSCAASGFTFRNYAMSWVRQAPGKGLEWVSAINGGGDSTYYADSVKGRFTISRDNSKNTLYLQMNSLRAEDTAVYYCAKEEGDWNYVGYGYYYYYGMDVWGQGTTVTVSS VL: DIQMTQSPSSMSASVGDRVTITCRASQGISSWLAWYQQKPGKAPKLLIYAASSLQSGVPSRFSGSGSGTDFTLTIRSLQPEDFATYYCQQANSFPYTFGQGTKLEIK	False

Attention now shifts to the item below.
## Task Does the reported EC50 of the following binder sit strictly below 1 nM? H3M6720N (antibody, V domains shown, Chimeric: human variable, mouse constant domains; H3M prefix marks the Fc, isotype not spelled out) VH: EVQLVESGGGLVQPGGSLKLSCAASGFTFSSFWMSWVRQAPGKGLEWVANIKQNGSETYYVDSVKGRFTISRDNTKNSLYLQMNSLRAEDTAIYYCARGGRIQLWSSWFDPWGQGTLVTVSS VL: AIQMTQSPSSLSASVGDRVTITCRASQGISNDLGWYQQKPGKAPKLLIYGASSLQTGVPSRFSGSGSGTDFTLTISSLQPEDFATYYCLQDFNYPYTFGQGTKLEIK
## Result False
